Test system: PDC KRAS tumor spheroids with HUVEC/MSC, viability
Assay: Anticancer human tumor 349418-098-R-PDC patient-derived lung adenocarcinoma cell line growth inhibition [KRAS2]
Conditions: second compound 0.0316 µM; first compound 0.000316 µM; hits give low values
Here the recorded viability, T/C is given for each entry.
Write it as a number; the unit % goes unstated.

COMPOUND	ENDPOINT_NAME	TEST_RESULT
CC(=O)Nc1cccc(-n2c(=O)n(C3CC3)c(=O)c3c(Nc4ccc(I)cc4F)n(C)c(=O)c(C)c32)c1 + C=CC(=O)N1CCN(c2nc(OCC3CCCN3C)nc3c2CCN(c2cccc4cccc(C)c24)C3)CC1CC#N	viability, T/C	20.2
CC(C)n1nc(-c2ccc3oc(N)nc3c2)c2c(N)ncnc21 + C=CC(=O)N1CCN(c2nc(OCC3CCCN3C)nc3c2CCN(c2cccc4cccc(C)c24)C3)CC1CC#N	viability, T/C	91.5

Query string: Item Cn1ncnc1[C@H]1c2n[nH]c(=O)c3cc(F)cc(c23)N[C@@H]1c1ccc(F)cc1 + C=CC(=O)N1CCN(c2nc(OCC3CCCN3C)nc3c2CCN(c2cccc4cccc(C)c24)C3)CC1CC#N has what recorded viability, T/C?
Result string: 98.3

Query string: Reported viability, T/C for CN(C)C/C=C/C(=O)Nc1cc2c(Nc3ccc(F)c(Cl)c3)ncnc2cc1O[C@H]1CCOC1 + C=CC(=O)N1CCN(c2nc(OCC3CCCN3C)nc3c2CCN(c2cccc4cccc(C)c24)C3)CC1CC#N : what is it?
Result string: 102

====

Documented viability, T/C across a set of compounds
Tested on: PDC KRAS tumor spheroids with HUVEC/MSC, viability
Assay: Anticancer human tumor 349418-098-R-PDC cell line growth inhibition [KRAS2];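 note: spheroids exposed to compounds for seven days before readout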
Settings: second compound 0.1 µM; first compound 0.1 µM; hits give low values
Hi! Could you send only the number? It should be in %, unit omitted.

Consider the worked cases shown below.
COMPOUND	UNIT_OF_MEASURE	viability, T/C
Cn1ncnc1[C@H]1c2n[nH]c(=O)c3cc(F)cc(c23)N[C@@H]1c1ccc(F)cc1 + C=CC(=O)N1CCN(c2nc(=O)n(-c3c(C)ccnc3C(C)C)c3nc(-c4c(O)cccc4F)c(F)cc23)C(C)C1	%	87
COc1cc2nccc(Oc3ccc(NC(=O)C4(C(=O)Nc5ccc(F)cc5)CC4)cc3)c2cc1OC + C=CC(=O)N1CCN(c2nc(=O)n(-c3c(C)ccnc3C(C)C)c3nc(-c4c(O)cccc4F)c(F)cc23)C(C)C1	%	98.3

Query string: Suppose we examine the compound COC(=O)c1ccc2c(C(=Nc3ccc(N(C)C(=O)CN4CCN(C)CC4)cc3)c3ccccc3)c(O)[nH]c2c1 + COc1cc2nc(C)nc(NC(C)c3cc(N)cc(C(F)(F)F)c3)c2cc1OC1CCOC1 ; what viability, T/C value has been reported?
Result string: 97.2

====

Listing: viability, T/C of selected compounds
Test system: PDC KRAS tumor spheroids with HUVEC/MSC, viability
Assay: Anticancer human tumor 349418-098-R-PDC cell line growth inhibition [KRAS2];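 note: spheroids exposed to compounds for seven days before readout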
Settings: second compound 10 µM; first compound 1 µM; hits give low values
Quick reminder: number only, in %, skip the unit.

Below are worked cases with known answers.
COMPOUND	UNIT_OF_MEASURE	viability, T/C
COc1cc2nccc(Oc3ccc(NC(=O)C4(C(=O)Nc5ccc(F)cc5)CC4)cc3)c2cc1OC + CC1OCC2(CCN(c3cnc(Sc4ccnc(N)c4Cl)c(N)n3)CC2)C1N	%	61.5
COc1cc2nccc(Oc3ccc(NC(=O)C4(C(=O)Nc5ccc(F)cc5)CC4)cc3)c2cc1OC + CNCc1ccccc1-c1csc(C(C)Nc2nc(C)nc3cc(OC)c(OC)cc23)c1	%	0.24
CCNC(=O)CC1N=C(c2ccc(Cl)cc2)c2cc(OC)ccc2-n2c(C)nnc21 (stereo unspecified) + COc1cc2nc(C)nc(NC(C)c3cc(N)cc(C(F)(F)F)c3)c2cc1OC1CCOC1	%	1.96
CCN1CCN(Cc2ccc(Nc3ncc(F)c(-c4cc(F)c5nc(C)n(C(C)C)c5c4)n3)nc2)CC1 + COc1cc2nc(C)nc(NC(C)c3cc(N)cc(C(F)(F)F)c3)c2cc1OC1CCOC1	%	0.15
CC1COCCN1c1cc(-c2ccnn2C)c2ccnc(-c3ccn[nH]3)c2n1 (stereo unspecified) + C=CC(=O)N1CCN(c2nc(=O)n(-c3c(C)ccnc3C(C)C)c3nc(-c4c(O)cccc4F)c(F)cc23)C(C)C1	%	4.61

Here is the next item to consider.
Query string: Request body: readout viability, T/C, system PDC KRAS tumor spheroids with HUVEC/MSC, viability, query CCNC(=O)CC1N=C(c2ccc(Cl)cc2)c2cc(OC)ccc2-n2c(C)nnc21 (stereo unspecified) + CNCc1ccccc1-c1csc(C(C)Nc2nc(C)nc3cc(OC)c(OC)cc23)c1 . Return the value.
Result string: 0.09

These data points were gathered from PubChem BioAssay AID1963866.
